test system: mTEFS fibroblasts autofluorescence, GFP-channel imaging, 3 days; assay: compound fluorescence in GFP channel, mTEFS cells – imaging, mTEFS fibroblasts, cherry-pick, artefact control for X-chromosome reactivation project, dose response (AID 743396); settings: cells pretreated with 5-aza-dC
Calls of active or inactive are those of the source.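 The calls were made as follows: active = fitted curve reaches a 40% rise in fluorescent cells at or below the top valid dose; inactive = opposite-direction effect, or the rest.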
Reply using exactly one outcome from label 1 for active, label 0 for inactive

CCN1CCc2c(sc(NC(=O)c3ccc(S(=O)(=O)N(CC)c4ccccc4)cc3)c2C(N)=O)C1 :: label 1
CC1CN(C(=O)/C=C/c2ccc([N+](=O)[O-])s2)CC(C)O1 (stereo not given) :: label 1

Could you check what this test reported for `COc1ccc2nc(C)cc(NCc3ccc(F)cc3)c2c1` ?
label 1

Can you look up the reported call for `COc1ccc(Cn2cc3c(-c4ccc(F)cc4)nnc-3c3cc(OC)c(OC)cc32)cc1` for me?
label 1

Write down the call the test reported for this compound. Item: `N#C/C(=C\c1ccc([N+](=O)[O-])o1)c1nc2ccccc2[nH]1`
label 0

What was the test verdict on `N#C/C(=C/c1ccc(N2CCCCC2)o1)C(=O)NCCc1c[nH]c2ccccc12` ?
label 1

What is the recorded call for this compound in the test? O=[N+]([O-])c1ccc(/C=C/C2=NN(c3ccccc3)C(c3ccco3)C2)cc1 (stereo not given)
label 1

Tell me the recorded outcome of this test for `COc1ccc2c(n1)Sc1nc3ccccc3nc1N2` .
label 1

Write down the call the test reported for this compound. Item: O=[N+]([O-])c1ccc(C2=NN(c3ccccc3)C(c3ccco3)C2)cc1 (stereo not given)
label 1

Each compound tested received a call. Report the one for `C[C@@H]1CCCCO[C@H](CN(C)C(=O)Nc2ccc(C(F)(F)F)cc2)[C@H](C)CN([C@H](C)CO)C(=O)c2cc(NC(=O)CCC(F)(F)F)ccc2O1` .
label 1

Recorded call for `O=CNc1ccc2c3c(cccc13)-c1ccccc1-2` ?
label 1

Outcome? `Cc1ccc(-c2cn3nc(-c4ccccc4)c(-c4ccccc4)nc3n2)cc1`
label 1

====

test system: mTEFS fibroblasts autofluorescence, GFP-channel imaging, 3 days; assay: compound fluorescence in GFP channel, mTEFS cells – imaging, mTEFS fibroblasts, cherry-pick, artefact control for X-chromosome reactivation project, dose response (AID 743396); conditions: cells pretreated with 5-aza-dC
Calls of active or inactive are those of the source.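 The calls were made as follows: active = fitted curve reaches a 40% rise in fluorescent cells at or below the top valid dose; inactive = opposite-direction effect, or the rest.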
Your reply should match one of these outcome classes. Yes = active, No = inactive

Study these solved cases before continuing.
CCN1/C(=C/c2ccc3cc(C)ccc3[n+]2CC)Sc2cc(C)ccc21 :: Yes
CC(=O)Nc1cc2c3c(cccc3c1)-c1ccccc1-2 :: Yes

What did the test return for `N#Cc1ccccc1Cn1cc(/C=N/Nc2ccc([N+](=O)[O-])cn2)c2ccccc21` ?
Yes

Give the logged outcome of this assay for the following compound: `Cc1cc2oc3ccc(NCCCn4ccnc4)cc3c(=O)c2cc1C`
Yes

Query: recorded result category for `CCCCNc1ccc2c3c(cccc13)C(=O)N(CCCC)C2=O` in this test
Yes

Short answer needed: outcome of this test for `Cc1n[nH]c(=S)n1/N=C/c1ccc(-c2ccc(Cl)cc2)o1` ?
No

Check the results log: what was the call for `COC1=CC(=O)c2c(ccc3ncnc(N)c23)C1=O` ?
No

So what was the verdict on `COc1cc2c3nnc(-c4ccc(F)cc4)c-3cn(Cc3cccc(C)c3)c2cc1OC` in this test?
Yes

Give the logged outcome of this assay for the following compound: `CC1=NN(c2nc(N)nc(/C(C#N)=C/c3ccc([N+](=O)[O-])o3)n2)C(C)(C)C1`
Yes

Recorded call for `Oc1ccc(/C=N/Nc2ccnc3cc(Cl)ccc23)c(O)c1` ?
No

Hey, what did the test say about `Cc1n[nH]c(=S)n(/N=C/c2cccc([N+](=O)[O-])c2)c1=O` ?
No
